# systemTested: PTK5(h) (Homo sapiens, UniProt P42685)
# Construct: purchased Millipore (IC50 Profiler Express service)
# Sequence (P42685 whole entry): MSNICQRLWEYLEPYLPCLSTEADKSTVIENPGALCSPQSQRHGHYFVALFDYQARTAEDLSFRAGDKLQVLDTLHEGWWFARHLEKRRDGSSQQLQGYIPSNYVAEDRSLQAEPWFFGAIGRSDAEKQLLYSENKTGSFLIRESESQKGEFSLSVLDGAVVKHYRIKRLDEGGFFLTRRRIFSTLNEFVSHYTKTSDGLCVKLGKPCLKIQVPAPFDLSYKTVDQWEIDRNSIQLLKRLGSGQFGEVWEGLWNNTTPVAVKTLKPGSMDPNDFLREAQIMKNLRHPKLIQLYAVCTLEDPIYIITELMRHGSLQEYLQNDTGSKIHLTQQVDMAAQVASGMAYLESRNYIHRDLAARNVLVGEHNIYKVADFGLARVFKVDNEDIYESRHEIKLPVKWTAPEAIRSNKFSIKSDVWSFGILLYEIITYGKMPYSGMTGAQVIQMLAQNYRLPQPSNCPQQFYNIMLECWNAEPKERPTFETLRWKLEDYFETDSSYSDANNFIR
# testMethodNotes: Kinase Profiling Assay
# Format: biochemical
# particulars: 100 μM peptide
assayReadout: PTK5(h) % activity (%)
Give a bare numeral; the unit % is implied.

As a guide, the following entries are already answered.
{"querySequence": "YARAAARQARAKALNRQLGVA (Mammalian) [MMI-0200]", "systemTested": "PTK5(h) (Homo sapiens, UniProt P42685)", "outputUnit": "%", "PTK5(h) % activity": 108}
{"querySequence": "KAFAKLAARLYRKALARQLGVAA [MMI-0400]", "systemTested": "PTK5(h) (Homo sapiens, UniProt P42685)", "outputUnit": "%", "PTK5(h) % activity": 129}

Suppose we examine the sequence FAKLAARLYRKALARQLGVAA [MMI-0300] ; what PTK5(h) % activity value has been reported?
132

Same for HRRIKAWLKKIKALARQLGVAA (Mammalian) [MMI-0500]
96
